B1: library; numbered along this chain (parent)
chain: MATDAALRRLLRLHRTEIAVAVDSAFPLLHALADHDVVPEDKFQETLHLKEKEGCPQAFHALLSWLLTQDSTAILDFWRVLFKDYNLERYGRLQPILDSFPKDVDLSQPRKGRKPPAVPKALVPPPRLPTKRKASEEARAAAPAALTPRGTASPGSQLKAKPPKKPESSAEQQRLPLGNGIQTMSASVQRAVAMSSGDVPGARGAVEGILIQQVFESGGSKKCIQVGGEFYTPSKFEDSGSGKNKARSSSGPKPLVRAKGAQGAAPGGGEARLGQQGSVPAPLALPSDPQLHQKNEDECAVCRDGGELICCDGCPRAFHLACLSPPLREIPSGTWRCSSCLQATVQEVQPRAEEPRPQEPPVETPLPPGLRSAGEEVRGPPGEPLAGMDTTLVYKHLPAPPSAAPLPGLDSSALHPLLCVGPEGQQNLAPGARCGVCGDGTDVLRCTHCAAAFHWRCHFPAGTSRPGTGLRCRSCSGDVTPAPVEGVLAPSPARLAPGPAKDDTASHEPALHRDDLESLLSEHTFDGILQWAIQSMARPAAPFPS

Variants of: B1
Assay: AIRE transcriptional activation functional score (insulin promoter-GFP; nonsense median 0, synonymous median 1) (normalised score); higher = higher AIRE activity (more reporter activation)
Conditions: with insulin promoter-GFP reporter in HEK293
QUANTITY NAME: AIRE transcriptional activation functional score
Lab note: record the figure alone, no unit after it.

Guide cases for AIRE transcriptional activation functional score, answers given:
mutant_id=K102A recorded_measurement=-0.872
mutant_id=L516A recorded_measurement=0.556
mutant_id=A160Q recorded_measurement=-0.113
mutant_id=P544S recorded_measurement=0.867
mutant_id=R139T recorded_measurement=0.641

Could you tell me which AIRE transcriptional activation functional score is on file for L13W ?
0.425

// lookup AIRE transcriptional activation functional score for E167N
1.8
